studySystem: human PD-L1 / Human PD-1 (Homo sapiens (Human), UniProt Q9NZQ7)
Sequence (Q9NZQ7 19-239): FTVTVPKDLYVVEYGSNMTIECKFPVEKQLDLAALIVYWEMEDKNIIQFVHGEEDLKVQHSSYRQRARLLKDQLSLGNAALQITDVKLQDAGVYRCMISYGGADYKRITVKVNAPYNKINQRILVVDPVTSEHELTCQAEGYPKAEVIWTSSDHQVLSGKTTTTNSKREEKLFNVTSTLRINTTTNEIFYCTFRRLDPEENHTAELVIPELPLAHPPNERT
methodNotes: Enzyme-Linked Immunosorbent Assay (ELISA), PD-1/PD-L1 binding
experimentalConditions: Table 3; plate-coated human PD-L1, biotinylated human PD-1; read-out: ELISA IC50
Description: Plates were coated with 1 μg/mL of human PD-L1 (obtained from R&D) in PBS overnight at 4° C. The wells were then blocked with PBS containing 2% BSA in PBS (W/V) with 0.05% TWEEN-20 for 1 hour at 37° C. […] The absorbance was read at 450 nm using a micro-plate spectrophotometer. Compounds in Table 2 and Table 3 were prepared by methods as described in the Examples, and evaluated according to the assay below.
parameterMeasured: IC50

Hello, I am looking for reported IC50 with human PD-L1 / Human PD-1 (Homo sapiens (Human), UniProt Q9NZQ7) for CCOc1cc(NC2CCc3c(-c4ccccc4F)cccc32)c(Cl)cc1CN[C@@H](CO)C(=O)O (stereo partly drawn) . Could you help? 100 to 500 nM

Hello, I am looking for reported IC50 with human PD-L1 / Human PD-1 (Homo sapiens (Human), UniProt Q9NZQ7) for O=C(O)[C@H](CO)NCc1cc(Cl)c(O[C@H]2CCc3c(-c4ccccc4F)cccc32)cc1OCc1cncc(-c2nn[nH]n2)c1 . Could you help? 100 to 500 nM

Hello, I am looking for reported IC50 with human PD-L1 / Human PD-1 (Homo sapiens (Human), UniProt Q9NZQ7) for O=C(O)[C@H](CO)NCc1cc(Cl)c(O[C@H]2CCc3c(-c4ccc5c(c4F)OCCO5)cccc32)cc1OCc1cc(Cl)cc(Cl)c1 . Could you help? 500 to 20000 nM

Hello, I am looking for reported IC50 with human PD-L1 / Human PD-1 (Homo sapiens (Human), UniProt Q9NZQ7) for N#Cc1cncc(COc2cc(O[C@H]3CCc4c(-c5ccccc5F)cccc43)c(Cl)cc2CN[C@H]2CCC[C@@H]2O)c1 . Could you help? < 100 nM

Hello, I am looking for reported IC50 with human PD-L1 / Human PD-1 (Homo sapiens (Human), UniProt Q9NZQ7) for N#Cc1cncc(COc2cc(O[C@H]3CCc4c(-c5ccccc5F)cccc43)c(Cl)cc2CNC(CO)(CO)CO)c1 . Could you help? < 100 nM

Hello, I am looking for reported IC50 with human PD-L1 / Human PD-1 (Homo sapiens (Human), UniProt Q9NZQ7) for N#Cc1cncc(COc2cc(O[C@H]3CCc4c(-c5ccccc5F)cccc43)c(Cl)cc2CNCCCN2CCS(=O)(=O)CC2)c1 . Could you help? 100 to 500 nM

Hello, I am looking for reported IC50 with human PD-L1 / Human PD-1 (Homo sapiens (Human), UniProt Q9NZQ7) for Cc1cc(C#N)cc(COc2cc(O[C@H]3CCc4c(-c5ccccc5F)cccc43)c(Cl)cc2CN[C@@H](CO)C(=O)O)c1 . Could you help? 100 to 500 nM

Hello, I am looking for reported IC50 with human PD-L1 / Human PD-1 (Homo sapiens (Human), UniProt Q9NZQ7) for C[C@H](NCc1cc(Cl)c(O[C@H]2CCc3c(-c4ccccc4F)cccc32)cc1OCc1cncc(C#N)c1)C(=O)N[C@@H](C)P(=O)(O)O . Could you help? < 100 nM

Hello, I am looking for reported IC50 with human PD-L1 / Human PD-1 (Homo sapiens (Human), UniProt Q9NZQ7) for CCOC(=O)[C@](C)(CO)NCc1cc(Cl)c(O[C@H]2CCc3c(-c4ccc5c(c4F)OCCO5)cccc32)cc1OCc1cncc(C#N)c1 . Could you help? 100 to 500 nM
